For each of the molecules below, state its melting point.

C=CCOC(=O)NC(=O)C(c1ccccc1)c1ccccc1 [Example 3, Diphenylacetyl-carbamic acid allyl ester]
118 to 120 °C
CCCCSC(=O)NC(=O)C(c1ccccc1)c1ccccc1
99 °C

Would you mind listing melting point for each of the following molecules?
1. CCCCOC(=O)NC(=O)C1c2ccccc2Sc2ccccc21 [Example 32]
2. O=C(Nc1nnc(C2CC2)o1)C(c1ccccc1)c1ccccc1 [Example 57]
3. C=CCOC(=O)NC(=O)C(C)(c1ccccc1)c1ccccc1 [Example 24]
4. CCCCC(=O)NC(=O)C(c1ccccc1)c1ccccc1 [Example 43, Pentanoic acid diphenylacetyl-amide]
5. CCOC(=O)NC(=O)C1c2ccccc2Oc2ccc(Br)cc21 (racemic)
6. CCOC(=O)NC(=O)C1c2ccccc2Sc2ccccc21

151 to 154 °C
159 to 160 °C
89 °C
83 °C
203 °C
179 to 182 °C

Would you mind listing melting point for each of the following molecules?
1. CC(C)(C)OC(=O)NC(=O)C(c1ccccc1)c1ccccc1
2. CCCC(=O)NC(=O)C(c1ccccc1)c1ccccc1
3. COCCc1nnc(NC(=O)C(c2ccccc2)c2ccccc2)o1 [Example 55]

["160 to 162 °C", "205 °C", "114 to 115 °C"]

Would you mind listing melting point for each of the following molecules?
1. CCCC(=O)NC(=O)C1c2ccccc2Oc2ccccc21
2. O=C(NC(=O)C(c1ccccc1)c1ccccc1)OCC1CC1 [Example 10]
3. O=C(Nc1nnc(CC2CC2)o1)C(c1ccccc1)c1ccccc1 [Example 59]
4. CCOC(=O)NC(=O)C(c1cccc(C)c1)c1ncc(C(F)(F)F)cc1Cl (stereo not drawn)
5. CCCCOC(=O)NC(=O)C(c1ccccc1)c1ccccc1
6. CCCCOC(=O)NC(=O)C(C)(c1ccccc1)c1ccccc1 [Example 25]

1. 222 °C
2. 108 °C
3. 158 to 159 °C
4. 146 to 147 °C
5. 82 to 84 °C
6. 83 °C

Would you mind listing melting point for each of the following molecules?
1. Cc1cnc(NC(=O)C(c2ccccc2)c2ccccc2)o1 [Example 65]
2. CCOC(=O)NC(=O)C1c2ccccc2Oc2c1cccc2C(F)(F)F (stereo not drawn)
3. O=C(Nc1ncco1)C1c2ccccc2Sc2ccccc21 [Example 31]
4. CCOC(=O)NC(=O)C1c2ccccc2Oc2ccccc21

1: 166 to 168 °C; 2: 196 to 198 °C; 3: 188 to 191 °C; 4: 228 °C (dec.)
